TARGET: Bromodomain testis-specific protein (Homo sapiens, UniProt Q58F21)
ASSAY REMARKS: Binding affinity to BRDT BD1 (unknown origin) assessed as dissociation constant by BROMOscan analysis
ENDPOINT LABEL: Kd
// return the numeric value with its unit appended

Which Kd value belongs to CCn1c2c(c(=O)[nH]c1=O)C(c1ccc(C)cc1)C(C(=O)OCc1ccccc1)=C(C)N2 (stereo unspecified) ?
770 nM

###

TARGET: Bromodomain testis-specific protein (Homo sapiens, UniProt Q58F21)
ASSAY REMARKS: Binding affinity to BRDT BD2 (unknown origin) assessed as dissociation constant by BROMOscan analysis
ENDPOINT LABEL: pKd
In plain terms, pKd is the concentration in mol/L turned into minus its base-10 logarithm.

Which pKd value belongs to CCn1c2c(c(=O)[nH]c1=O)C(c1ccc(C)cc1)C(C(=O)OCc1ccccc1)=C(C)N2 (stereo unspecified) ?
7.17
